Target: T1, extracellular domain of human CD73 protein, C-terminus polyhistidine-tagged (human, UniProt P21589 27-547)
T1 construct: also the immunogen; also called CD73-ECD; human CD73-ECD
T1 sequence: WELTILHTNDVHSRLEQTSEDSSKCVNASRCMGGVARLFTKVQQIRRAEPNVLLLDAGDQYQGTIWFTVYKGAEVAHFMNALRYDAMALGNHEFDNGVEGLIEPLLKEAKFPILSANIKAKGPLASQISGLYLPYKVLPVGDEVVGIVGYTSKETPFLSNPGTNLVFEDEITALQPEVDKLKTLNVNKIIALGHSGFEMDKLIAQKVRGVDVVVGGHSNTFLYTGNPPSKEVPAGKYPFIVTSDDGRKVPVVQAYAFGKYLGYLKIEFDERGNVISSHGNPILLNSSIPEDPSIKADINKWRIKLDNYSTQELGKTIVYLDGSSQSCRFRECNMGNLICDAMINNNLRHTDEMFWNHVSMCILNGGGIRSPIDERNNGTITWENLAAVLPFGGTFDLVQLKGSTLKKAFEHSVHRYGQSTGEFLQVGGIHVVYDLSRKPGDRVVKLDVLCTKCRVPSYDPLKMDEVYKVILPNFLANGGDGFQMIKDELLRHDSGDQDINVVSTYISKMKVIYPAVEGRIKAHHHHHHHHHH
Test: ELISA on CD73-ECD, 0.8 µL supernatant of antibody expression, first of two readings; PBS 0.19, 0.18
Entries annotated with measured ELISA reading (not named on the sheet)
Respond with the number and no other words.

Known ELISA reading (not named on the sheet) results, listed for orientation:
5-E11 derived antibody 5-E11QS (VHH, not shown: a dimerising Fc or GST) VHH: ALQLVESGGGLVQPGGSLRLSCEVSGFTLDYYNIGWFRQAPGKEREGVSCSSQSGGSTYYADSVKGRFTISRDNAKNTVYLQMNSLKPEDTGVYYCAAYRGWHPSLDARVYDYWGQGTEVTVSS	4.17
5-E11 derived antibody 5-E11GS (VHH, not shown: a dimerising Fc or GST) VHH: ALQLVESGGGLVQPGGSLRLSCEVSGFTLDYYNIGWFRQAPGKEREGVSCSSGSGGSTYYADSVKGRFTISRDNAKNTVYLQMNSLKPEDTGVYYCAAYRGWHPSLDARVYDYWGQGTEVTVSS	4.16
5-E11 derived antibody 5-E11AS (VHH, not shown: a dimerising Fc or GST) VHH: ALQLVESGGGLVQPGGSLRLSCEVSGFTLDYYNIGWFRQAPGKEREGVSCSSASGGSTYYADSVKGRFTISRDNAKNTVYLQMNSLKPEDTGVYYCAAYRGWHPSLDARVYDYWGQGTEVTVSS	4.22

// switching to the query binder
Any idea what its ELISA reading (not named on the sheet) is? The binder is chimeric nanobody 5-E11 (Fc fusion, Human-alpaca chimeric antibody (VHH on hIgG1 Fc); Only the VHH is tied to the tested molecule; also called original antibody 5-E11) VHH: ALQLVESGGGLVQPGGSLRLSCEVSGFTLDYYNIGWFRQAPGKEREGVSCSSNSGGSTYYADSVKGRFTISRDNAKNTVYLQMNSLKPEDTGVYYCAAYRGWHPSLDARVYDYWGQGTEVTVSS
4.18

From: patent US20250382376A1
